Data origin, for the record: patent US4066762A

Structures can show the parent of a compound that is named as a salt.
For Strep. Faecalis HH 34358, measured MIC is reported for the entries below.
Numbers only, in µg/mL.

Hello, I would appreciate it if you could give MIC for each entry below.
1. CO/N=C(\C(=O)N[C@@H]1C(=O)N2C(C(=O)O)=C(CSc3nnnn3CS(=O)(=O)O)CS[C@H]12)c1ccccc1 [Compound B, disodium salt]
2. CO[C@@]1(NC(=O)Cc2cccs2)C(=O)N2C(C(=O)O)=C(COC(N)=O)CS[C@@H]21 [Cefoxitin, reference compound]
3. O=C(O)C1=C(CSc2nnnn2CS(=O)(=O)O)CS[C@@H]2[C@H](NC(=O)/C(=N\O)c3ccccc3)C(=O)N12 [Compound C, disodium salt]
4. Cc1nnc(SCC2=C(C(=O)O)N3C(=O)[C@@H](NC(=O)Cn4cnnn4)[C@H]3SC2)s1 [Cefazolin, reference compound]
5. CO/N=C(\C(=O)N[C@@H]1C(=O)N2C(C(=O)O)=C(COC(N)=O)CS[C@H]12)c1ccco1 [Cefuroxime, reference compound]
6. CO/N=C(\C(=O)N[C@@H]1C(=O)N2C(C(=O)O)=C(CSc3nnnn3CS(=O)(=O)O)CS[C@H]12)c1ccco1 [A, disodium salt hydrate]

1: 25; 2: 200; 3: 6.3; 4: 6.3; 5: 12.5; 6: 100
